Measured values drawn from patent US10676429B2 for this set.

# reported log10 of EC50; entries follow
- System: HBV
- TEST PROTOCOL: Anti-HBV activity in stable transfected HepG2.2.15 cell line (HBV DNA from secreted virions, realtime PCR)
- Format: cell-based
- REPORTED CONDITIONS: Hepatitis B virus, HepG2.2.15, 144 h, HepG2.2.15 cells, 6 days of treatment, secreted virion HBV DNA; read-out: HepG2 2.15 EC50
Quick note: numbers are log10 of EC50, with µM as the unit.

Recorded results for 5 molecules are shown here.
O=C(Nc1ccccc1)c1cc(S(=O)(=O)NC2CCCCC2)cs1 [Compound 60] :: -0.07
O=C(Nc1ccc(F)c(Cl)c1)c1c(F)ccc(S(=O)(=O)N[C@H]2CCOC2)c1F [Compound 201] :: -1.22
CC[C@@H](C)NS(=O)(=O)c1cccc(C(=O)Nc2ccc(F)cc2)c1 [Compound 70] :: -0.47
O=C(Nc1ccccc1Cl)c1ccc(Cl)c(S(=O)(=O)N2CCCCCC2)c1 [Compound 33] :: 0.55
N#Cc1cccc(NC(=O)c2cccc(S(=O)(=O)NC3CCCC3)c2)c1 [Compound 75] :: -0.41

In plain terms, Cc1cc(NC(=O)c2cccc(S(=O)(=O)N[C@@H]3CCC[C@@H]3O)c2)ccc1F [Compound 172] has a documented log10 of EC50 of -0.59

In plain terms, Cc1cc(NC(=O)c2cccc(S(=O)(=O)NC(C)C)c2)ccc1F [Compound 73] has a documented log10 of EC50 of -1.14

In plain terms, O=C(Nc1cccc(C(F)(F)F)c1)c1cc(S(=O)(=O)NC2CCCCC2)ccc1F [Compound 7] has a documented log10 of EC50 of -0.18

In plain terms, Cc1cccc(NC(=O)c2cc(S(=O)(=O)N3CCOCC3)ccc2Cl)c1 [Compound 27] has a documented log10 of EC50 of 0.05

###

# reported CC50; entries follow
- System: HepG2 cells
- TEST PROTOCOL: Cytotoxicity in HepG2 cells, 4 days, Resazurin assay
- REPORTED CONDITIONS: read-out: HepG2 4 days CC50; HepG2 cells, 4 days, Resazurin

O=C(Nc1ccc(F)cc1)c1cccc(S(=O)(=O)NC2CCCCC2)c1 [Compound 6] :: > 25 µM
Cc1c(NC(=O)c2cccc(S(=O)(=O)N[C@H]3CCOC3)c2)ccc(F)c1F [Compound 118] :: > 25 µM

In plain terms, CC(C)(C)NS(=O)(=O)c1cccc(C(=O)Nc2ccc(F)cc2)c1 [Compound 28] has a documented CC50 of 52.5 µM

In plain terms, CN1CCC(NS(=O)(=O)c2cccc(C(=O)Nc3ccc(F)cc3)c2)CC1 [Compound 45] has a documented CC50 of > 100 µM

In plain terms, Cc1c(F)ccc(NC(=O)c2cccc(S(=O)(=O)NC3(C)COC3)c2)c1C [Compound 115] has a documented CC50 of > 25 µM

In plain terms, O=C(Nc1ccc(F)cc1)c1cc(S(=O)(=O)NC2CCCCC2)ccc1F [Compound 18] has a documented CC50 of > 50 µM

In plain terms, Cc1cc(NC(=O)c2cccc(S(=O)(=O)NC3Cc4ccccc4C3O)c2)ccc1F (single isomer, unassigned) [Compound 141b] has a documented CC50 of > 25 µM

In plain terms, Cc1cc(NC(=O)c2cccc(S(=O)(=O)NC3CCC(O)C3)c2)ccc1F (single isomer, unassigned) [Compound 145b] has a documented CC50 of > 25 µM
